Taken from patent US20130064794A1.

Entries and their EC50 values follow.
System: HCV genotype 1b replicon
Experiment: microbe, parasite or virus in culture
Assay type: cell-based
Settings: Hepatitis C virus, 72 h, read-out: HCV Replicon EC50
Experimental: Huh-7-derived cell line (Zluc) that harbors an HCV genotype 1b replicon and a luciferase reporter gene was grown in Dulbecco's Modified Eagle Medium (DMEM) supplemented with 10% fetal bovine serum, 2 mM GlutaMAX, 1% MEM nonessential amino acids, 100 IU/mL penicillin, 100 μg/mL streptomycin, and 0.5 mg/mL Geneticin® (G418). […] The EC50 values were calculated from dose response curves from the resulting best-fit equations determined by Microsoft Excel and XLfit 4.1 software.

C[C@@]1(O)[C@H](O)[C@@H](COP(=O)(O)NCc2ccccc2)O[C@H]1n1cnc2c(=O)[nH]c(N)nc21 [Compound 1] | 100 to 1000 nM
COc1nc(N)nc2c1ncn2[C@@H]1O[C@H](COP(=O)(N[C@@H](CC(C)C)C(=O)OC(C)C)OCOC(=O)OC(C)C)[C@@H](O)[C@@]1(C)O (some centres unmarked) [Compound 7] | < 100 nM
CCNC(=O)OCOP(=O)(N[C@H](C(=O)OCC)C(C)(C)C)OC[C@H]1O[C@@H](n2cnc3c(OCC)nc(N)nc32)[C@](C)(F)[C@@H]1O (single isomer, unassigned) [Compound 22] | 1000 to 10000 nM
CCOC(=O)OC(C)OP(=O)(N[C@@H](C)C(=O)OC(C)C)OC[C@H]1O[C@@H](n2cnc3c(OC)nc(N)nc32)[C@](C)(F)[C@@H]1O (single isomer, unassigned) [Compound 14] | < 100 nM
CC(C)(C)C(=O)OCOP(=O)(NCc1ccccc1)OC[C@H]1O[C@@H](n2cnc3c(=O)[nH]c(N)nc32)[C@](C)(O)[C@@H]1O (some centres unmarked) [Compound 2] | < 100 nM

Input: Quick one: give measured EC50 for COc1nc(N)nc2c1ncn2[C@@H]1O[C@H](COP(=O)(NCc2ccccc2)OC(OC(=O)OC(C)C)C(C)C)[C@@H](O)[C@@]1(C)O (some centres unmarked) [Compound 6]
Output: < 100 nM

Input: Give a short answer stating reported EC50 for CCOc1nc(N)nc2c1ncn2[C@@H]1O[C@H](COP(=O)(N[C@@H](C)C(=O)OC(C)C)OC(C)OC(=O)SCC)[C@@H](O)[C@@]1(C)F (some centres unmarked) [Compound 24] .
Output: < 100 nM

Input: Fill in EC50 for record CCNC(=O)OCOP(=O)(N[C@H](C(=O)OCC)C(C)(C)C)OC[C@H]1O[C@@H](n2cnc3c(OCC)nc(N)nc32)[C@](C)(F)[C@@H]1O (single isomer, unassigned) [Compound 21]
Output: 1000 to 10000 nM

* * *

test system: Zluc cells (Huh-7-derived cell line); assay: Cytotoxicity evaluation, CellTiter-Blue Cell Viability Assay; assay type: cell-based; conditions: read-out: HCV Replicon CC50
Recorded CC50 values for a group of compounds are listed next.

CCOC(=O)OC(C)OP(=O)(N[C@@H](C)C(=O)OC(C)C)OC[C@H]1O[C@@H](n2cnc3c(OC)nc(N)nc32)[C@](C)(F)[C@@H]1O (single isomer, unassigned) [Compound 15] | > 50 µM
CCOC(=O)OC(C)OP(=O)(N[C@@H](C)C(=O)OC(C)C)OC[C@H]1O[C@@H](n2cnc3c(OC)nc(N)nc32)[C@](C)(F)[C@@H]1O (single isomer, unassigned) [Compound 16] | > 50 µM

// switching to the query compound
Input: Give a short answer stating reported CC50 for CCOC(=O)OC(C)OP(=O)(N[C@@H](C)C(=O)OC(C)C)OC[C@H]1O[C@@H](n2cnc3c(OC)nc(N)nc32)[C@](C)(F)[C@@H]1O (single isomer, unassigned) [Compound 17] .
Output: > 50 µM
